These measurements were taken from ChEMBL document CHEMBL3885881.

# Species: Rattus norvegicus
# protocol_text: DrugMatrix - Regimen: Daily Repeat
# Format: toxicity, organism-based, Sprague-Dawley
# Design: regimen Daily Repeat, gender Male, age 6-8 weeks
# applied_conditions: in vivo, po, 0 mg/kg, 72 h, tissue Plasma, route oral GAVAGE, dose level Control, time 3 day, vehicle 100 % WATER
test_readout: TOTAL BILIRUBIN (mg/dL)

Cc1cn([C@H]2C=C[C@@H](CO)O2)c(=O)[nH]c1=O = 0.2
Cc1cc(C(C)(C)C)c(O)c(C)c1CC1=NCCN1 = 0.22
C[N+](C)(C)CCOC(N)=O.[Cl-] = 0.2

----------
# Organism: Rattus norvegicus
# protocol_text: DrugMatrix - Regimen: Daily Repeat
# Assay type: toxicity, organism-based, Sprague-Dawley
# Design: regimen Daily Repeat, gender Male, age 6-8 weeks
# applied_conditions: in vivo, po, 0 mg/kg, 120 h, tissue Blood, route oral GAVAGE, dose level Control, time 5 day, […]
test_readout: HEMOGLOBIN (G/DL)

O=C(Nc1ccc(Cl)c(Cl)c1)c1cc(Cl)cc(Cl)c1O [3,3',4',5-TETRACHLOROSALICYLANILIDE] = 14.18
Cc1cccc(C)c1NC(=O)C(C)N (stereo not given) [TOCAINIDE] = 13.5
O=C(O)COC(=O)Cc1ccccc1Nc1c(Cl)cccc1Cl = 13.85
CCOC(=O)C1=C(C)NC(C)=C(C(=O)OCC)C1c1ccccc1/C=C/C(=O)OC(C)(C)C = 13.38
COC(=O)Nc1nc2ccc(C(=O)c3ccccc3)cc2[nH]1 = 13.85

----------
# Species on record: Rattus norvegicus
# protocol_text: DrugMatrix - Regimen: Daily Repeat
# Format: toxicity, organism-based, Sprague-Dawley
# Design: regimen Daily Repeat, gender Male, age 6-8 weeks
# applied_conditions: in vivo, po, 0 mg/kg, 72 h, tissue Blood, route oral GAVAGE, dose level Control, time 3 day, vehicle .5 % CMC
Below, each of the molecules is paired with its reported MEAN CORPUSCULAR VOLUME value.
test_readout: MEAN CORPUSCULAR VOLUME (fL)

Cc1cc2c(s1)Nc1ccccc1N=C2N1CCN(C)CC1 [OLANZAPINE] = 63.27
CC(=O)Nc1ccc2c(c1)Cc1ccccc1-2 [2-ACETYLAMINOFLUORENE] = 62.48
NCC(CC(=O)O)c1ccc(Cl)cc1 (stereo not given) [BACLOFEN] = 62.48
CCN1C[C@]2(COC)[C@H](O)C[C@H](OC)[C@@]34[C@@H]5C[C@@]6(O)[C@H](OC(=O)c7ccccc7)[C@@H]5[C@@](OC(C)=O)([C@@H]([C@H](OC)[C@H]23)[C@@H]14)[C@@H](O)[C@@H]6OC [ACONITINE] = 63.66
COc1ccc(Cl)cc1C(=O)NCCc1ccc(S(=O)(=O)NC(=O)NC2CCCCC2)cc1 [GLYBURIDE] = 59.45
NC(=O)NC(=O)Cc1ccccc1 [PHENACEMIDE] = 62.82
COc1cc(/C=C/C(=O)O)ccc1O [FERULATE] = 63.4
COc1cc(NC(C)CCCN)c2ncccc2c1 (stereo not given) [PRIMAQUINE] = 59.76
CCN(CC)CCNC(=O)c1cc(Cl)c(N)cc1OC [METOCLOPRAMIDE] = 58.52
CCOc1cc(N)c(Cl)cc1C(=O)NCC1CN(Cc2ccc(F)cc2)CCO1 (stereo not given) [MOSAPRIDE] = 62.48
CN(C)CCOC(c1ccccc1)c1ccccc1.Cn1c(=O)c2[nH]c(Cl)nc2n(C)c1=O [DIMENHYDRINATE] = 63.05
Cl.NC[C@H]1CC[C@H](C(=O)Oc2ccc(CCC(=O)O)cc2)CC1 [CETRAXATE HYDROCHLORIDE] = 63.4
NC(=O)CN1CCCC1=O = 64.42
CCN1CCCC1CNC(=O)c1cc(S(N)(=O)=O)ccc1OC (stereo not given) [SULPIRIDE] = 63.52
CC(C)NCC(O)COc1ccc(CC(N)=O)cc1 (stereo not given) [ATENOLOL] = 61.48

----------
# Species on record: Rattus norvegicus
# protocol_text: DrugMatrix - Regimen: Daily Repeat
# Type: toxicity, organism-based, Sprague-Dawley
# Set-up: regimen Daily Repeat, gender Male, age 6-8 weeks
# applied_conditions: in vivo, po, 0 mg/kg, 72 h, tissue Blood, route oral GAVAGE, dose level Control, time 3 day, vehicle 100 % WATER
test_readout: ERYTHROCYTE COUNT (x10E6/uL)

C[N+](C)(C)CCOC(N)=O.[Cl-] = 5.49
CCN(CC)C(=S)SSC(=S)N(CC)CC = 5.52
Cc1cc(C(C)(C)C)c(O)c(C)c1CC1=NCCN1 = 5.26

----------
The entries below come with measured ALBUMIN values attached.
# Organism: Rattus norvegicus
# protocol_text: DrugMatrix - Regimen: Daily Repeat
# Format: toxicity, organism-based, Sprague-Dawley
# Set-up: regimen Daily Repeat, gender Male, age 6-8 weeks
# applied_conditions: in vivo, po, 0 mg/kg, 72 h, tissue Plasma, route oral GAVAGE, dose level Control, time 3 day, vehicle 100 % WATER
test_readout: ALBUMIN (G/DL)

C[N+](C)(C)CCOC(N)=O.[Cl-] = 4.08
Cc1cn([C@H]2C=C[C@@H](CO)O2)c(=O)[nH]c1=O = 4.08
NN [HYDRAZINE] = 4.02
CCC1(c2ccccc2)C(=O)NC(=O)NC1=O = 4.07
CC(Cl)(Cl)Cl = 4.1
C1CCN2C[C@@H]3C[C@@H](CN4CCCC[C@@H]34)[C@H]2C1 = 4.1

----------
# Species on record: Rattus norvegicus
# protocol_text: DrugMatrix - Regimen: Daily Repeat
# Assay type: toxicity, organism-based, Sprague-Dawley
# Set-up: regimen Daily Repeat, gender Male, age 6-8 weeks
# applied_conditions: in vivo, po, 0 mg/kg, 120 h, tissue Plasma, route oral GAVAGE, dose level Control, time 5 day, vehicle 100 % WATER
test_readout: TOTAL BILIRUBIN (mg/dL)

C[N+](C)(C)CCOC(N)=O.[Cl-] = 0.22
CC(Cl)(Cl)Cl = 0.17
Cc1cc(C(C)(C)C)c(O)c(C)c1CC1=NCCN1 = 0.18
CN1C(=O)OC(C)(C)C1=O = 0.72

----------
# Species: Rattus norvegicus
# protocol_text: DrugMatrix - Regimen: Daily Repeat
# Format: toxicity, organism-based, Sprague-Dawley
# Set-up: regimen Daily Repeat, gender Male, age 6-8 weeks
# applied_conditions: in vivo, po, 0 mg/kg, 72 h, tissue Plasma, route oral GAVAGE, dose level Control, time 3 day, vehicle 100 % WATER
test_readout: CHLORIDE

NN [HYDRAZINE] = 99.5 MEQ/L
CCC1(c2ccccc2)C(=O)NC(=O)NC1=O = 99.33 MEQ/L
Cc1cc(C(C)(C)C)c(O)c(C)c1CC1=NCCN1 = 101.17 MEQ/L

----------
# Organism: Rattus norvegicus
# protocol_text: DrugMatrix - Regimen: Daily Repeat
# Type: toxicity, organism-based, Sprague-Dawley
# Set-up: regimen Daily Repeat, gender Male, age 6-8 weeks
# applied_conditions: in vivo, po, 0 mg/kg, 72 h, tissue Blood, route oral GAVAGE, dose level Control, time 3 day, vehicle .5 % CMC
Below, each of the molecules is paired with its reported HEMOGLOBIN value.
test_readout: HEMOGLOBIN (G/DL)

COc1cc(NC(C)CCCN)c2ncccc2c1 (stereo not drawn) = 14.58
CC(=O)Nc1ccc2c(c1)Cc1ccccc1-2 = 13.68
O=C(O)CCc1nc(-c2ccccc2)c(-c2ccccc2)o1 = 14.22
CCN1CCCC1CNC(=O)c1cc(S(N)(=O)=O)ccc1OC (stereo not drawn) [SULPIRIDE] = 14.22
CN(C)CCOC(c1ccccc1)c1ccccc1.Cn1c(=O)c2[nH]c(Cl)nc2n(C)c1=O [DIMENHYDRINATE] = 13.82
CC(C)NCC(O)COc1ccc(CC(N)=O)cc1 (stereo not drawn) = 14.92
CCOc1cc(N)c(Cl)cc1C(=O)NCC1CN(Cc2ccc(F)cc2)CCO1 (stereo not drawn) [MOSAPRIDE] = 13.68
COc1cc(/C=C/C(=O)O)ccc1O [FERULATE] = 12.75

----------
# Species on record: Rattus norvegicus
# protocol_text: DrugMatrix - Regimen: Daily Repeat
# Type: toxicity, organism-based, Sprague-Dawley
# Parameters: regimen Daily Repeat, gender Male, age 6-8 weeks
# applied_conditions: in vivo, po, 0 mg/kg, 72 h, tissue Blood, route oral GAVAGE, dose level Control, time 3 day, […]
test_readout: NEUTROPHIL (%)

COC(=O)Nc1nc2ccc(C(=O)c3ccccc3)cc2[nH]1 = 8.67
Oc1ncnc2[nH]ncc12 = 10.33
CO[C@H]1O[C@@H]2O[C@@]3(C)CC[C@H]4[C@H](C)CC[C@@H]([C@H]1C)[C@@]24OO3 = 9.83
CCOC(=O)C1=C(C)NC(C)=C(C(=O)OCC)C1c1ccccc1/C=C/C(=O)OC(C)(C)C = 4.5
CCC(C)(C)C(=O)O[C@H]1C[C@@H](C)C=C2C=C[C@H](C)[C@H](CC[C@@H]3C[C@@H](O)CC(=O)O3)[C@H]21 = 5
CC#C[C@]1(O)CC[C@H]2[C@@H]3CCC4=CC(=O)CCC4=C3[C@@H](c3ccc(N(C)C)cc3)C[C@@]21C = 5
